system: L02; test: Cytotoxicity against human HL7702 cells up to 72 hrs by MTT assay; format: cell-based; details: L02, 72 h
Assay Readout: IC50

Looking for the measured IC50 of "C=C1C(=O)[C@]23[C@H](O)[C@H]1C[C@H](O)[C@H]2[C@]12CCCC(C)(C)[C@H]1C[C@H]3O[C@@H]2OCCCn1cc(CN2C(=O)S/C(=C/C)C2=O)nn1" , can you help? 18.1 µM
